Biological target: Nuclear receptor subfamily 1 group I member 2 (Homo sapiens) (UniProt O75469)
Sequence (O75469 whole entry, looked up): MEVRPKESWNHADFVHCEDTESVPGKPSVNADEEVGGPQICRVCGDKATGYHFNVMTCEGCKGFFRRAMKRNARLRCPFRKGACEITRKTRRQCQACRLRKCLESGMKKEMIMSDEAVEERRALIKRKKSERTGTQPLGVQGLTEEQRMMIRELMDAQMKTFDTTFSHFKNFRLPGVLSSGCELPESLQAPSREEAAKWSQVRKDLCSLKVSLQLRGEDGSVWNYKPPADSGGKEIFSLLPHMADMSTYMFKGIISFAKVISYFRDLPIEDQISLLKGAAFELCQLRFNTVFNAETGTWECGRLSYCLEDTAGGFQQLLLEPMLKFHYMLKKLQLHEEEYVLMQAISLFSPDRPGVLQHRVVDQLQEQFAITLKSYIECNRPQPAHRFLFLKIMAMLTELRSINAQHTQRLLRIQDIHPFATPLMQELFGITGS
Experiment: Human pregnane X receptor (PXR) small molecule agonists, qHTS assay (AID 1346982); further: nearly all actives have a fitted effect of over 35% in size; further: potency means the concentration at half of the fitted maximal effect
Conditions: PXR-Luc HepG2, CYP3A4 luciferase reporter, 24 h; series mostly up to 92.4 µM
Inconclusive results are not listed. Calls of active or inactive are those of the source. The call rests on the fitted dose curve; in most records, active means well fitted activation curve with a large enough effect in the repeat runs; inconclusive means weak or mixed curves; inactive means no such curve, though single readings can be large or run the other way.
RECORDED_ENDPOINT: Potency

- CHEMICAL_STRUCTURE: "Cc1ccc2c(C)cccc2c1"
  REPORTED_RESULT: "inactive"
- CHEMICAL_STRUCTURE: "C=CCSSCC=C"
  REPORTED_RESULT: "inactive"
- CHEMICAL_STRUCTURE: "CON(C)C(=O)Nc1ccc(Cl)cc1"
  REPORTED_RESULT: "48.6 µM (active)"
- CHEMICAL_STRUCTURE: "C=CCc1ccc(OC(=O)Cc2ccccc2)c(OC)c1"
  REPORTED_RESULT: "inactive"
- CHEMICAL_STRUCTURE: "C[N+]1(CCC(C(N)=O)(c2ccccc2)c2ccccc2)CCCCC1"
  REPORTED_RESULT: "inactive"
- CHEMICAL_STRUCTURE: "CCC1(CC)C(=O)NC(=O)NC1=O"
  REPORTED_RESULT: "inactive"
- CHEMICAL_STRUCTURE: "O=C(Cc1ccccc1)c1ccccc1"
  REPORTED_RESULT: "61.1 µM (active)"
- CHEMICAL_STRUCTURE: "CCCCNC(=O)OCC#CI"
  REPORTED_RESULT: "inactive"

---

Test: qHTS assay to identify small molecule agonists of the progesterone receptor (PR) signaling pathway - cell viability counter screen (AID 1346799); further: nearly all actives have a fitted effect of over 45% in size
Settings: PR-UAS-bla HEK293T viability, CellTiter-Glo luminescence, 16 h; series mostly up to 92.4 µM
Records with an inconclusive call do not appear. The source made the active and inactive calls. Calls come from the whole dose curve.
Classes used: t (active), f (inactive)

- MOLECULE: "Cc1ccc2c(C)cccc2c1"
  ASSIGNED_CLASS: "f"
- MOLECULE: "C[C@H](N)[C@H](O)c1ccc(O)c(O)c1"
  ASSIGNED_CLASS: "f"
- MOLECULE: "CCCCC1C(=O)NC(=O)N(C2CCCCC2)C1=O (stereo unspecified)"
  ASSIGNED_CLASS: "f"
- MOLECULE: "CCCCC#N"
  ASSIGNED_CLASS: "f"
- MOLECULE: "Clc1ccc(Cl)c(Cl)c1"
  ASSIGNED_CLASS: "f"
- MOLECULE: "CC(C)(C)c1ccc(CCOc2ncnc3ccccc23)cc1"
  ASSIGNED_CLASS: "f"
- MOLECULE: "CCC1CCC(=O)O1 (stereo unspecified)"
  ASSIGNED_CLASS: "f"
- MOLECULE: "COc1cc(CC(C)N)c(OC)cc1Br (stereo unspecified)"
  ASSIGNED_CLASS: "f"
- MOLECULE: "CCCCC(CC)CO[N+](=O)[O-] (stereo unspecified)"
  ASSIGNED_CLASS: "f"
- MOLECULE: "CCSCc1ccccc1OC(=O)NC"
  ASSIGNED_CLASS: "f"
- MOLECULE: "CCCN(CCC)c1c([N+](=O)[O-])cc(C(C)C)cc1[N+](=O)[O-]"
  ASSIGNED_CLASS: "f"
- MOLECULE: "Cc1nnc(-c2ccccc2)c(=O)n1N"
  ASSIGNED_CLASS: "f"
- MOLECULE: "O=C1NC(=O)C(=O)C(=O)N1"
  ASSIGNED_CLASS: "f"
- MOLECULE: "O=[N+]([O-])O[C@H]1CO[C@H]2[C@@H]1OC[C@H]2O[N+](=O)[O-]"
  ASSIGNED_CLASS: "f"
- MOLECULE: "CCC(C)(C)c1ccc(O)c(C(C)(C)CC)c1"
  ASSIGNED_CLASS: "t"
- MOLECULE: "Nc1cc(Cl)cc(C(=O)O)c1Cl"
  ASSIGNED_CLASS: "f"
- MOLECULE: "O=[N+]([O-])c1cc(Cl)c(Cl)cc1Cl"
  ASSIGNED_CLASS: "f"
- MOLECULE: "CCCCOC(=O)CCC(=O)OCCCC"
  ASSIGNED_CLASS: "f"
- MOLECULE: "CC(C)(C)OOC(C)(C)CCC(C)(C)OOC(C)(C)C"
  ASSIGNED_CLASS: "f"
- MOLECULE: "CCc1ccccc1N"
  ASSIGNED_CLASS: "f"
- MOLECULE: "CC1(C)CC(=O)CC(C)(C)N1[O]"
  ASSIGNED_CLASS: "f"
- MOLECULE: "O=C1CC[C@@]2(O)[C@H]3Cc4ccc(O)c5c4[C@@]2(CCN3CC2CC2)[C@H]1O5"
  ASSIGNED_CLASS: "f"
- MOLECULE: "CCCCCCCCCCCCCCCl"
  ASSIGNED_CLASS: "f"
- MOLECULE: "Cc1cccc(C)c1NC1=NCCCS1"
  ASSIGNED_CLASS: "f"
- MOLECULE: "C=CCc1ccc(OC(=O)Cc2ccccc2)c(OC)c1"
  ASSIGNED_CLASS: "f"
- MOLECULE: "N#CC1(N=NC2(C#N)CCCCC2)CCCCC1"
  ASSIGNED_CLASS: "f"
- MOLECULE: "CCC(C)Cl (stereo unspecified)"
  ASSIGNED_CLASS: "f"
- MOLECULE: "O=S(=O)(Cl)Cl"
  ASSIGNED_CLASS: "f"
- MOLECULE: "C=CC(=O)OCC"
  ASSIGNED_CLASS: "f"
- MOLECULE: "Nc1ccccc1C(=O)OCC(O)CO (stereo unspecified)"
  ASSIGNED_CLASS: "f"
- MOLECULE: "CCOP(=O)(SC(C)CC)N1CCSC1=O (stereo unspecified)"
  ASSIGNED_CLASS: "f"
